Listed here are molecules together with their documented IC50.
target: CDK4 (Homo sapiens, UniProt P11802); assay: Kinase assay, CDK4 activity range (Table 2); assay type: biochemical
Sequence (P11802 whole entry, species assumed): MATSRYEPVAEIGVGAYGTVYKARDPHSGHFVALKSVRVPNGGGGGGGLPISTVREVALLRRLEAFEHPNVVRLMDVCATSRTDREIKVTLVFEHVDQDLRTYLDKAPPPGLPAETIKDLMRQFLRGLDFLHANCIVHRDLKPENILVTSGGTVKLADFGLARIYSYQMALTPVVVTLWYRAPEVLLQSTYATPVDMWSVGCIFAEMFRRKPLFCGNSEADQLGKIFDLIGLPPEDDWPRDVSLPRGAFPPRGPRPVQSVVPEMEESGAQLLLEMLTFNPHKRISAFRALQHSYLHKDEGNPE
Sequence (P24385 whole entry partner, species assumed): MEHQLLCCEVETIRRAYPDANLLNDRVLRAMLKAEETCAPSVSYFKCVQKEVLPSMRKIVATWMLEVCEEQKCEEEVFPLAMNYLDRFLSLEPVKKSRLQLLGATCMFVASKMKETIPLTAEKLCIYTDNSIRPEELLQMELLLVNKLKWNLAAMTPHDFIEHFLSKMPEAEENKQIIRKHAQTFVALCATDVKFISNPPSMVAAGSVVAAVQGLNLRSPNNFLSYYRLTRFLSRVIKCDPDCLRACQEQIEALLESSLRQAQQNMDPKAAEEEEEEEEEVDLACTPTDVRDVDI

Here's what some known entries look like.
• CC(C)Oc1ccccc1-c1cc(Nc2ccc(C(=O)N[C@@H]3CCCC[C@H]3N)cc2)ncn1 (racemic) [(199)] = 1000 to 10000 nM
• COc1ccccc1-c1cc(Nc2ccc(NC(=O)C3(N)CCCC3)cc2)ncn1 [(68)] = 1000 to 10000 nM
• COc1ccccc1-c1cc(Nc2ccc(NC(=O)[C@@H]3CCCCN3)cc2)ncn1 [(30)] = 1 to 1000 nM
• COc1cccc(-c2cc(Nc3ccc(NC(=O)[C@@H]4CCCCN4)cc3)ncn2)c1OC [(186)] = 1000 to 10000 nM
• NC1CCCCC1NC(=O)c1ccc(Nc2cc(-c3ccccc3OCc3ccccc3)ncn2)cc1 (centres unmarked) [(198)] = 1 to 1000 nM
• COc1ccccc1-c1cc(Nc2ccc(NS(C)(=O)=O)cc2)ncn1 [(33)] = 1000 to 10000 nM
• O=Cc1cccc(-c2cc(Nc3ccc(NC(=O)[C@@H]4CCCCN4)cc3)ncn2)c1 [(168)] = 1000 to 10000 nM
• CNC(C)(C)C(=O)Nc1ccc(Nc2cc(-c3ccccc3OC)ncn2)cc1 [(118)] = 1 to 1000 nM
• CC[C@H](C)[C@H](N)C(=O)Nc1ccc(Nc2cc(-c3ccccc3OC)ncn2)cc1 [(140)] = 1000 to 10000 nM
• O=C(Nc1ccc(Nc2cc(-c3ccccc3OC(F)(F)F)ncn2)cc1)[C@@H]1CCCCN1 [(190)] = 1000 to 10000 nM

IC50 reported for this molecule Cc1ccc(Nc2cc(-c3ccccc3)ncn2)cc1NS(C)(=O)=O [(106)] : 10000 to 250000 nM

molecule COc1ccccc1-c1cc(Nc2ccc(C(=O)N3CCOCC3)cc2)ncn1 [(147)] , IC50 observed: 1000 to 10000 nM

The molecule listed as COc1ccccc1-c1cc(Nc2ccc(NC(=O)C3(N)CCCCC3)cc2)ncn1 [(66)] has a reported IC50 of 1000 to 10000 nM

molecule COc1ccccc1-c1cc(Nc2ccc(N)cc2)ncn1 [(22)] , IC50 observed: 1000 to 10000 nM

For record COc1ccccc1-c1cc(Nc2ccc(NC(=O)[C@H]3CCCCN3)cc2)ncn1 [(69)] the listed IC50 is 1 to 1000 nM

The recorded IC50 for COc1ccccc1-c1cc(Nc2ccc(NC(=O)C3CCN(C)CC3)cc2)ncn1 [(89)] is 1000 to 10000 nM

Noted for COc1ccccc1-c1cc(Nc2ccc(C(N)=O)cc2)ncn1 [(14)] : its IC50 reads 10000 to 250000 nM

CCN(CC)CCC(=O)Nc1ccc(Nc2cc(-c3ccccc3OC)ncn2)cc1 [(64)] yielded IC50 of 1000 to 10000 nM

Entry CN[C@H](C(=O)Nc1ccc(Nc2cc(-c3ccccc3OC)ncn2)cc1)c1ccccc1 [(82)] ; IC50 = 1000 to 10000 nM

Kindly note the recorded IC50 for CC(=O)Nc1cccc(-c2cc(Nc3ccc(C)c(NS(C)(=O)=O)c3)ncn2)c1 [(104)] , which is 10000 to 250000 nM

Record COc1ccccc1-c1cc(Nc2ccc(NC(=O)CC3CCCCN3)cc2)ncn1 (centres unmarked) [(59)] . Reported IC50: 1 to 1000 nM

Just so you know, measured IC50 for COc1ncccc1-c1cc(Nc2ccc(NC(=O)[C@@H]3CCCCN3)cc2)ncn1 [(171)] came out at 1000 to 10000 nM

Entry COc1ccccc1-c1cc(Nc2cccc(NC(=O)[C@@H]3CCCCN3)c2)ncn1 [(128)] — recorded IC50 = 1000 to 10000 nM

Data provenance is patent US8084457B2.
